# TARGET: Aryl hydrocarbon receptor (Homo sapiens)
# ASSAY PROTOCOL: qHTS assay to identify small molecule that activate the aryl hydrocarbon receptor (AhR) signaling pathway (AID 743085);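 also: HG2L7.5c1 human HepG2 liver cells with stably integrated DRE-driven firefly reporter; % is scaled to controls: 0 for no effect and ±100 for the full control effect; nearly all actives have a fitted effect of over 15% in size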
# CONDITION SET: HepG2 AhR-luc (HG2L7.5c1), luciferase, 24 h; series mostly up to 70.3 µM
Records with an inconclusive call do not appear. Active and inactive are the calls of the source. Calls follow the shape of the dose curve; as a rule, active = well fitted activation curve with a large enough effect in the repeat runs; inconclusive = weak or mixed curves; inactive = no such curve, though single readings can be large or run the other way.
Return exactly one item of yes (1) (active), no (0) (inactive)

CCc1ccc(CC)cc1: no (0)
COc1cc(NS(=O)(=O)c2ccc(N)cc2)ncn1: no (0)
COc1cc2nc(N3CCN(C(=O)C4CCCO4)CC3)nc(N)c2cc1OC (stereo unspecified): no (0)
CCOc1ccccc1OCCN[C@H](C)Cc1ccc(OC)c(S(N)(=O)=O)c1: no (0)
CCCCNCC: no (0)
CCOC(=O)CC: no (0)
CC/C=C/CCCCCCCCCCOC(C)=O: no (0)
CCCC(=O)C(CC)Sc1ccoc1C (stereo unspecified): no (0)

### Prompt // outcome(item) with item = C=CCn1cc[n+](C)c1
### Response no (0)

### Prompt Same question, CN(C)CCc1c[nH]c2ccc(C[C@H]3COC(=O)N3)cc12 this time
### Response no (0)

### Prompt Next record, please: CN(C)CCc1c[nH]c2ccc(CS(=O)(=O)N3CCCC3)cc12
### Response no (0)

### Prompt Let us now turn to O=C(O)CCC(=O)Nc1ccc(S(=O)(=O)Nc2nccs2)cc1
### Response no (0)

### Prompt Another: CCCCCCCCCCCCCCCC(=O)OC
### Response no (0)

### Prompt Same question, O=c1[nH]c(=O)c2cn[nH]c2[nH]1 this time
### Response no (0)

### Prompt Query O=C1c2ccccc2C(=O)N1CO next
### Response no (0)

### Prompt Param item: O=C(O)Cc1c(Cl)ccc(Cl)c1Cl
### Response no (0)

### Prompt And CN(C)c1ccncc1 ?
### Response no (0)

### Prompt Quick one: COCCCOc1cc(C[C@@H](C[C@H](N)[C@@H](O)C[C@H](C(=O)NCC(C)(C)C(N)=O)C(C)C)C(C)C)ccc1OC
### Response no (0)

### Prompt What about C/C=C/C(=O)CCCC ?
### Response no (0)

### Prompt // query: COc1cc(C(=O)NC2CCCNC2)cc(OC)c1OC (stereo unspecified)
### Response no (0)

### Prompt Also need N#Cc1ccccc1C#N , thanks.
### Response no (0)

* * *

# ASSAY PROTOCOL: A CellTox Green Cytotoxicity Assay to monitor cytotoxicity in HepG2 cells - 24 hour (AID 1224878); also: % is scaled to controls: 0 for no effect and ±100 for the full control effect; nearly all actives have a fitted effect of over 45% in size
# CONDITION SET: CellTox Green fluorescence; series mostly up to 76.8 µM
Inconclusive results are not listed. Activity calls are given as the source filed them. Calls follow the shape of the dose curve; as a rule, active = well fitted activation curve with a large enough effect in the repeat runs; inconclusive = weak or mixed curves; inactive = flat fitted curve, though single readings scatter.
REPORTED METRIC: cytotoxicity

Record excerpt, results attached:
O=S(=O)(O)c1cc(I)c(O)c2ncccc12: inactive
CCN(CC)CC(=O)Oc1ccc(NC(C)=O)cc1: inactive
c1cc2ccc3ccc4ccc5cccc6c(c1)c2c3c4c56: -19.8% [at 2.72 µM] (inactive)
CCCCCCCCCCCCCCBr: inactive
Clc1ccc2c(c1)Nc1ccccc1S2: inactive
CC(O)CCCCn1c(=O)c2c(ncn2C)n(C)c1=O (configuration not stated): inactive

I have 7 compounds here; please give me cytotoxicity for each one.
1. O=S(=O)(O)c1ccc(Cl)cc1
2. CC(C)(C)NCC(O)COc1cccc2c1CCC(=O)N2 (configuration not stated)
3. Cc1nc2ccc(Cl)cc2[nH]1
4. C/C(=N\O)c1ccc(OCC(=O)N2CCCCC2)cc1
5. C=CC(C)(CCC=C(C)C)OC(=O)C(C)C (configuration not stated)
6. CN(C)CCCN(C)C
7. CC1(C)CC(N)CC(C)(C)N1

### Response
inactive
inactive
inactive
inactive
inactive
-15.5% [at 6.97 µM] (inactive)
inactive

For every record below, what is its cytotoxicity?
1. CCOc1ccccc1OCCN[C@H](C)Cc1ccc(OC)c(S(N)(=O)=O)c1
2. Cc1ccc2cccnc2c1
3. CC/C=C\CCCCCCCCCCOC(C)=O
4. CCN1CCN(C(=O)N[C@@H](C(=O)N[C@@H]2C(=O)N3C(C(=O)O)=C(CSc4nnnn4C)CS[C@H]23)c2ccc(O)cc2)C(=O)C1=O
5. CCOC(=O)[C@H](CCc1ccccc1)N[C@H]1CS[C@H](c2cccs2)CN(CC(=O)O)C1=O
6. CCO/C=C1\N=C(c2ccccc2)OC1=O
7. CC(C)(O)c1ccc(C(C)(C)O)cc1

### Response
1: inactive; 2: inactive; 3: inactive; 4: inactive; 5: inactive; 6: inactive; 7: inactive

Dear colleague, could you please provide cytotoxicity for the compounds listed below?
1. COc1ccc(Cl)cc1C
2. Nc1cc(S(=O)(=O)O)ccc1O
3. CCc1ncc(C)[nH]1
4. CC(=O)SC[C@@H](C)C(=O)N1CCC[C@H]1C(=O)N[C@@H](Cc1ccccc1)C(=O)O
5. O=Cc1ccccc1S(=O)(=O)O
6. CCCCCCC(=O)c1ccccc1
7. COCc1nnc(-c2ccc[n+]([O-])c2)n1-c1c(Cl)c(Cl)cc2[nH]c(=O)c(=O)[nH]c12

### Response
1: inactive; 2: inactive; 3: inactive; 4: inactive; 5: inactive; 6: inactive; 7: inactive
